// provenance: patent US11572475B2

- System: Duplex DNA
- protocol.details: Thermal melting UV-Vis absorbance, duplex DNA
- Format: binding
- experimental.setup: 1:6 ratio
Exercise: state measured Thermal Melting (Δ° C.), Duplex DNA, 1:6 ratio for each of the molecules provided.

Example entries begin here.
{"chem.smiles": "CC1(C)C(/C=C/C(Cl)=C/C=C2\\N(CCC[N+](C)(C)C)c3ccc(F)cc3C2(C)C)=[N+](CCC[N+](C)(C)C)c2ccc(F)cc21", "data.value": "1.2 +/− 0.7 °C"}
{"chem.smiles": "CC1(C)C(/C=C/C(=C/C=C2\\N(CCC[N+](C)(C)C)c3ccccc3C2(C)C)c2ccncc2)=[N+](CCC[N+](C)(C)C)c2ccccc21", "data.value": "0.6 +/− 0.3 °C"}
{"chem.smiles": "CCCCn1/c(=C/C=C/C2=[N+](CCC[N+](C)(C)C)c3ccccc3C2(C)C)c2cccc3cccc1c32", "data.value": "2.8 +/− 0.3 °C"}

Now for a further molecule.
Query: Which measured Thermal Melting (Δ° C.), Duplex DNA, 1:6 ratio value corresponds to CC1(C)C(/C=C/C(Br)=C/C=C2\N(CCC[N+](C)(C)C)c3ccc(F)cc3C2(C)C)=[N+](CCC[N+](C)(C)C)c2ccc(F)cc21 ?
Response: 0.9 +/− 0.4 °C
